B1: NCF4 (parent)
chain: FGPDSKSSALACTLPTLPAKVYVG

# Variants of: B1
# ASSAY_OVERVIEW: protein stability index of a GFP-peptide fusion (GPS, HEK-293T) (PSI 1-6); higher = more stable;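 further: lentivirally expressed fusions sorted by FACS into six bins by GFP to DsRed ratio, PSI derived from sequencing read proportions per bin multiplied by bin number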
# REPORTED_CONDITIONS: c terminus: a fixed tail appended
Consider the following variants; for each one, report its protein stability index.
Number only, no unit.

[ask] So what's the measured protein stability index for this one? K6T
[reply] 2.78

[ask] Given Y22W , state its recorded protein stability index.
[reply] 1.67

[ask] # query: protein stability index of entry F1A
[reply] 3.11

[ask] Query: protein stability index; subject: G2E
[reply] 3.43

[ask] I would be grateful if you could share the reported protein stability index for G24A .
[reply] 1.83

[ask] Recorded protein stability index for G2Y , please?
[reply] 2.22

[ask] Consider the variant shown here: V23R What is its recorded protein stability index?
[reply] 2.81

[ask] Which protein stability index value is on record for P18M ?
[reply] 1.75

[ask] protein stability index lookup needed for S5T , thanks.
[reply] 2.32

[ask] Would you kindly share the measured protein stability index for T13F ?
[reply] 2.39

[ask] So what's the measured protein stability index for this one? T16P
[reply] 2.05

[ask] Look at this variant and give its reported protein stability index. Y22C
[reply] 2.63

[ask] What value of protein stability index has been reported for the following variant? K6R
[reply] 1.76

[ask] # input variant: G2C ; wanted: its protein stability index
[reply] 1.12

[ask] Quick one: protein stability index of Y22G ?
[reply] 3.11

[ask] So what's the measured protein stability index for this one? A9H
[reply] 2.23

[ask] Item L14Q has what recorded protein stability index?
[reply] 2.25

[ask] Look at this variant and give its reported protein stability index. C12Y
[reply] 1.88

[ask] Which value of protein stability index has been reported for D4V in the records?
[reply] 1.75

[ask] Bench note: what protein stability index did S7D show?
[reply] 2.9

[ask] Please report the recorded protein stability index for P3D .
[reply] 2.19

[ask] Report protein stability index for S7A please.
[reply] 1.9

[ask] Quick check: protein stability index of L14G ?
[reply] 2.66

[ask] I am curious: what protein stability index value has been reported for G24R ?
[reply] 2.29

[ask] Name the recorded protein stability index for S8W .
[reply] 2.65

[ask] Fill in the blank: the reported protein stability index of D4P is ____.
[reply] 2.23

[ask] Request the reported protein stability index associated with L17S
[reply] 2.16

[ask] What does the data say about its protein stability index? Entry: A19V
[reply] 2.76

[ask] Item under review: V21M . Reported protein stability index?
[reply] 1.8

[ask] Record request: protein stability index value, item K20V
[reply] 1.81

[ask] Give the measured protein stability index of S8M .
[reply] 2.08

[ask] Find the recorded protein stability index belonging to L14T and report it.
[reply] 2.54

[ask] # input variant: S8Q ; wanted: its protein stability index
[reply] 2.29

[ask] Which value of protein stability index has been reported for P15L in the records?
[reply] 1.8

[ask] I would be grateful if you could share the reported protein stability index for L17F .
[reply] 2

[ask] Which protein stability index reading was recorded for the variant T16V ?
[reply] 2.08

[ask] Record request: protein stability index value, item L10D
[reply] 3.99

[ask] Return reported protein stability index; argument: K6V
[reply] 2.07

[ask] So what does the record say about protein stability index for A9Y ?
[reply] 1.5

[ask] Param item = L14W ; retrieve measured protein stability index.
[reply] 1.51

[ask] Quick one: protein stability index for T16I ?
[reply] 1.66

[ask] # get_value(readout='protein stability index', item= T13K )
[reply] 2.46

[ask] Need protein stability index, item A9L
[reply] 1.11

[ask] GET /values?readout=protein stability index&item= C12V
[reply] 2.19

[ask] # lookup: protein stability index of K6Q
[reply] 2.45

[ask] // lookup protein stability index for S7W
[reply] 1.97

[ask] Quick check: protein stability index of S5Q ?
[reply] 3.47

[ask] What value of protein stability index has been reported for the following variant? V23C
[reply] 2.72

[ask] I have this variant here, P3I , and I need its recorded protein stability index.
[reply] 2.13

[ask] Using the record for F1H , report its protein stability index.
[reply] 3.84

[ask] Quick check: protein stability index of S7V ?
[reply] 1.73

[ask] Query: protein stability index; subject: C12L
[reply] 2.33

[ask] Endpoint output: protein stability index of L17N . Value?
[reply] 2.27

[ask] What protein stability index value was documented for this variant, L10P ?
[reply] 3.58

[ask] // lookup protein stability index for G24Q
[reply] 2.22

[ask] Report protein stability index for T13I please.
[reply] 2.18

[ask] If you can, please state the reported protein stability index value of S7L .
[reply] 2.07

[ask] GET /values?readout=protein stability index&item= L10F
[reply] 2.15

[ask] Requested field: protein stability index. Item: K6S
[reply] 2.41

[ask] Report protein stability index for G2F please.
[reply] 3.06

[ask] Return reported protein stability index; argument: P18K
[reply] 2.15

[ask] Recorded protein stability index of D4F , please.
[reply] 1.58

[ask] Requested read-out: protein stability index. Entry: P3K
[reply] 2.56

[ask] Need protein stability index, item S8N
[reply] 2.32

[ask] Fill in: protein stability index of L14I is ___
[reply] 2.15

[ask] If you can, please state the reported protein stability index value of A19P .
[reply] 2.46

[ask] Given V21C , state its recorded protein stability index.
[reply] 2.58

[ask] Please report the recorded protein stability index for F1M .
[reply] 2.68

[ask] Return reported protein stability index; argument: A19Q
[reply] 1.91

[ask] What protein stability index value was documented for this variant, G2S ?
[reply] 2.34

[ask] Report protein stability index for D4M please.
[reply] 2.19

[ask] Given the entry S8K , report its measured protein stability index.
[reply] 1.85

[ask] Give its protein stability index value. Item: S7G
[reply] 2.37

[ask] Which protein stability index value belongs to V23L ?
[reply] 2.67

[ask] What measured protein stability index goes with K20G ?
[reply] 2.38

[ask] Entry under review: L17V . Reported protein stability index?
[reply] 2.29

[ask] Entry S7I has what protein stability index?
[reply] 1.56

[ask] Dear colleague, I am looking for the recorded protein stability index of the following variant: S5L
[reply] 2.12

[ask] Would you kindly share the measured protein stability index for T16G ?
[reply] 1.88

[ask] Request the reported protein stability index associated with C12F
[reply] 1.7

[ask] Which protein stability index is reported for this variant? V21H
[reply] 2.44

[ask] Reported protein stability index for V21E : what is it?
[reply] 3.17

[ask] What value of protein stability index has been reported for the following variant? T16H
[reply] 2.2

[ask] Look at this variant and give its reported protein stability index. A11S
[reply] 2.45

[ask] Could you tell me which protein stability index is on file for T16C ?
[reply] 2.02

[ask] Value lookup for protein stability index; key = G2A
[reply] 2.57

[ask] Record request: protein stability index value, item D4C
[reply] 2.11

[ask] What does the record list as protein stability index for A9W ?
[reply] 2.52

[ask] Look at this variant and give its reported protein stability index. A19N
[reply] 2.31

[ask] # lookup: protein stability index of T13D
[reply] 2.81

[ask] Give the measured protein stability index of D4K .
[reply] 2.48
